- Tested on: HepG2
- assaySummary: Cytotoxicity against human HepG2 cells after 72 hrs by MTT assay
- Assay type: functional, cell-based
- runConditions: HepG2, 72 h
propertyName: pIC50
Note: pIC50 values are expressed as the negative base-10 logarithm of concentration in M.

Answered examples (8):
molecule | pIC50
C[S+]([O-])CCCCN=C=S (stereo unspecified) [SULFORAPHANE] | 4.85
[O-][S+](CCCCN=C=S)Cc1cccs1 (stereo unspecified) | 5.42
CC(C)[S+]([O-])CCCCCN=C=S (stereo unspecified) | 5.43
CCC[S+]([O-])CCCCN=C=S (stereo unspecified) | 5.41
CC(C)C[S+]([O-])CCCCN=C=S (stereo unspecified) | 5.67
CC[S+]([O-])CCCCN=C=S (stereo unspecified) | 5.27
CC(C)[S+]([O-])CCCN=C=S (stereo unspecified) | 5.15
CC(C)[S+]([O-])CCCCCCN=C=S (stereo unspecified) | 5.11

Now look at this entry.
q: Any idea what pIC50 was measured for [O-][S+](CCCCCCN=C=S)Cc1ccccc1 (stereo unspecified) ?
a: 5.21

---

- System: HepG2
- assaySummary: Cytotoxicity against human HepG2 cells after 72 hrs by MTT assay
- Format: functional, cell-based
- runConditions: HepG2, 72 h
Please note: IC50 exactly at 5 µM is Not fulfilled. Only values below 5 µM get Fulfilled.

Example results:
compound | group
[O-][S+](CCCCN=C=S)CCc1ccccc1 (configuration not stated) | Not fulfilled
COc1ccc(C[S+]([O-])CCCCN=C=S)cc1 (configuration not stated) | Fulfilled
CCCC[S+]([O-])CCCCN=C=S (configuration not stated) | Not fulfilled

q: API: query returns whether the compound falls strictly under 5 µM in IC50. Query: [O-][S+](CCCCN=C=S)Cc1ccccn1 (configuration not stated)
a: Not fulfilled

q: Input [O-][S+](CCCCN=C=S)c1ccccc1 (configuration not stated)
a: Not fulfilled

q: Input CC(C)[S+]([O-])CCCCN=C=S (configuration not stated)
a: Fulfilled

q: Input [O-][S+](CCCCCN=C=S)Cc1ccccc1 (configuration not stated)
a: Fulfilled

---

- Tested on: A549
- assaySummary: Cytotoxicity against human A549 cells after 72 hrs by MTT assay
- Type: functional, cell-based
- runConditions: A549, 72 h
Quick reference: IC50 of the listed items.
The reply should contain only the number, in µM.

compound | unitText | reportedMeasurement
CCCC[S+]([O-])CCCCN=C=S (stereo not drawn) | µM | 9.56

Now look at this entry.
q: Any idea what IC50 was measured for CC(C)[S+]([O-])CCCCCCN=C=S (stereo not drawn) ?
a: 12

---

Quick reference: pIC50 of the listed items.
- Test system: HepG2
- assaySummary: Cytotoxicity against human HepG2 cells after 72 hrs by MTT assay
- Type: functional, cell-based
- runConditions: HepG2, 72 h
Note: pIC50 values are expressed as the negative base-10 logarithm of concentration in M.

Answered examples (5):
compound | pIC50
[O-][S+](CCCCN=C=S)Cc1ccccc1 (configuration not stated) | 5.55
O=S(=O)(CCCCN=C=S)Cc1ccccc1 | 5.07
O=[N+]([O-])c1ccc(C[S+]([O-])CCCCN=C=S)cc1 (configuration not stated) | 5.50
[O-][S+](CCCN=C=S)Cc1ccccc1 (configuration not stated) | 5.01
[O-][S+](CCCCN=C=S)Cc1ccco1 (configuration not stated) | 5.41

q: Any idea what pIC50 was measured for S=C=NCCCCSCc1ccccc1 ?
a: 4.90

q: Input [O-][S+](CCCCN=C=S)C1CCCC1 (configuration not stated)
a: 5.44
